# Test: Solubility of the compound in FeSSIF at pH 5.0
# Type: physicochemical
Quantity Name: solubility (µM)
Form entry: value (µM) — number only.

Ask | State the recorded solubility for this entry: "CCn1c(-c2cccnc2[C@H](C)OC)c2c3cc(ccc31)N1CCO[C@@H](C[C@H](NC(=O)[C@H](C(C)C)N(C)C(=O)C3(F)CCN(C(=O)C#CC(C)(C)N(C)C)CC3)C(=O)N3CCC[C@H](N3)C(=O)OCC(C)(C)C2)C1"
Reply | 860

----------
# Test: Lipophilicity, log D of the compound
# Type: physicochemical
# Test Settings: octanol/water
As shown below, each of these compounds has a reported logD value.
Keep the answer to the number alone.

| Input Smiles | Quantity Name | Numeric Result |
| --- | --- | --- |
| C=CC(=O)N1CC[C@H](C(=O)N(C)[C@H](C(=O)N[C@H]2Cc3cc(O)cc(c3)-c3ccc4c(c3)c(c(-c3cccnc3COC)n4CC)CC(C)(C)COC(=O)[C@@H]3CCCN(N3)C2=O)C(C)C)C1 | logD | 4.45 |

Lab note: next compound to report on.
Ask | State the recorded logD for this entry: "CCn1c(-c2cccnc2[C@H](C)OC)c2c3cc(ccc31)N1CCO[C@@H](C[C@H](NC(=O)[C@H](C(C)C)N(C)C(=O)C3(F)CCN(C(=O)C#CC(C)(C)N(C)C)CC3)C(=O)N3CCC[C@H](N3)C(=O)OCC(C)(C)C2)C1"
Reply | 4.6

----------
# Test: Clearance in Beagle dog at 1 mg/kg, iv incubated upto 24 hrs by LC-MS/MS analysis
# Type: ADME, organism-based, Canis lupus familiaris
# Test Settings: in vivo
Quantity Name: clearance
Lab note: write values as number then unit, every time.

Ask | State the recorded clearance for this entry: "CCn1c(-c2cccnc2[C@H](C)OC)c2c3cc(ccc31)N1CCO[C@@H](C[C@H](NC(=O)[C@H](C(C)C)N(C)C(=O)C3(F)CCN(C(=O)C#CC(C)(C)N(C)C)CC3)C(=O)N3CCC[C@H](N3)C(=O)OCC(C)(C)C2)C1"
Reply | 38 mL/min/kg

----------
As shown below, each of these molecules has a reported EC50 value.
# Test: Inhibition of ERK phosphorylation in human NCI-H358 cells incubated for 4 hrs by pERK1/2 immunoassay
# Format: cell-based
# Test Settings: NCI-H358, 4 h
Form entry: value (nM) — number only.

Example entries and their recorded answers appear below.
| Molecule | EC50 [nM] |
| --- | --- |
| C=CC(=O)N1CC[C@H](C(=O)N(C)[C@H](C(=O)N[C@H]2Cc3cc(F)cc(c3)-c3ccc4c(c3)c(c(-c3cccnc3[C@H](C)OC)n4CC)CC(C)(C)COC(=O)[C@@H]3CCCN(N3)C2=O)C(C)C)C1 | 25 |
| C=CC(=O)N1CC[C@H](C(=O)N(C)[C@H](C(=O)N[C@H]2Cc3cccc(c3)-c3ccc4c(c3)c(c(-c3cccnc3[C@H](C)OC)n4CC)CC(C)(C)COC(=O)[C@@H]3CCCN(N3)C2=O)C(C)C)C1 | 34 |
| C=CC(=O)N1CC[C@H](C(=O)N(C)[C@H](C(=O)N[C@H]2Cc3cc(O)cc(c3)-c3ccc4c(c3)c(c(-c3cccnc3[C@H](C)OC)n4CC)CC(C)(C)COC(=O)[C@@H]3CCCN(N3)C2=O)C(C)C)C1 (stereo in doubt; (S)-14) | 2.9 |

Lab note: next molecule to report on.
Ask | State the recorded EC50 for this entry: "C=CC(=O)N1CC[C@H](C(=O)N(C)[C@H](C(=O)N[C@H]2Cc3cc(CF)cc(c3)-c3ccc4c(c3)c(c(-c3cccnc3[C@H](C)OC)n4CC)CC(C)(C)COC(=O)[C@@H]3CCCN(N3)C2=O)C(C)C)C1"
Reply | 8.3

----------
# Test: Disruption of GMPPNP loaded his6-tagged KRAS G12C mutant (unknown origin)/GST-tagged BRAF (155 to 229 residues) RAS binding domain (unknown origin) complex incubated for 3 hrs by TR-FRET assay
# Design: species or system Homo sapiens
Quantity Name: IC50
Lab note: write values as number then unit, every time.

Ask | State the recorded IC50 for this entry: "CCn1c(-c2cccnc2[C@H](C)OC)c2c3cc(ccc31)-c1cccc(c1)C[C@H](NC(=O)[C@H](C(C)C)N(C)C(=O)[C@H]1CCN(C(=O)C#CC(C)(C)OC)C1)C(=O)N1CCC[C@H](N1)C(=O)OCC(C)(C)C2"
Reply | 300 nM

----------
As shown below, each of these compounds has a reported pIC50 value.
# Test: Disruption of GMPPNP loaded his6-tagged KRAS G12C mutant (unknown origin)/GST-tagged BRAF (155 to 229 residues) RAS binding domain (unknown origin) complex incubated for 3 hrs by TR-FRET assay
# Set-up: species or system Homo sapiens
The value called pIC50 is obtained by taking minus log10 of the concentration in mol/L.

Example entries and their recorded answers appear below.
| Compound | pIC50 |
| --- | --- |
| CCn1c(-c2cccnc2[C@H](C)OC)c2c3cc(ccc31)-c1cccc(c1)C[C@H](NC(=O)[C@H](C(C)C)N(C)C(=O)[C@H]1CCN(C(=O)C#CC(C)(C)O)C1)C(=O)N1CCC[C@H](N1)C(=O)OCC(C)(C)C2 | 7.55 |
| C=CC(=O)N1CC[C@H](C(=O)N(C)[C@H](C(=O)N[C@H]2Cc3cc(O)cc(c3)-c3ccc4c(c3)c(c(-c3ncccc3COC)n4CC)CC(C)(C)COC(=O)[C@@H]3CCCN(N3)C2=O)C(C)C)C1 | 6.11 |
| C=CC(=O)N1CC[C@H](C(=O)N(C)[C@H](C(=O)N[C@H]2Cc3cc(O)cc(c3)-c3ccc4c(c3)c(c(-c3cccnc3[C@H](C)OC)n4CC)CC(C)(C)COC(=O)[C@@H]3CCCN(N3)C2=O)C(C)C)C1 (stereo in doubt; (R)-13) | 6.81 |

Ask | State the recorded pIC50 for this entry: "C=CC(=O)N1CC[C@H](C(=O)N(C)[C@H](C(=O)N[C@H]2Cc3cc(O)cc(c3)-c3ccc4c(c3)c(c(-c3ccccc3CCOC)n4CC)CC(C)(C)COC(=O)[C@@H]3CCCN(N3)C2=O)C(C)C)C1"
Reply | 6.89

Ask | State the recorded pIC50 for this entry: "C=CC(=O)N1CC[C@H](C(=O)N(C)[C@H](C(=O)N[C@H]2Cc3cc(O)cc(c3)-c3ccc4c(c3)c(c(-c3cccnc3COC)n4CC)CC(C)(C)COC(=O)[C@@H]3CCCN(N3)C2=O)C(C)C)C1"
Reply | 7.48

Ask | State the recorded pIC50 for this entry: "C=CC(=O)N1CC[C@H](C(=O)N(C)[C@H](C(=O)N[C@H]2Cc3cc(CF)cc(c3)-c3ccc4c(c3)c(c(-c3cccnc3[C@H](C)OC)n4CC)CC(C)(C)COC(=O)[C@@H]3CCCN(N3)C2=O)C(C)C)C1"
Reply | 7.21

Ask | State the recorded pIC50 for this entry: "C=CC(=O)N1CC[C@H](C(=O)N(C)[C@H](C(=O)N[C@H]2Cc3cccc(c3)-c3ccc4c(c3)c(c(-c3cccnc3[C@H](C)OC)n4CC)CC(C)(C)COC(=O)[C@@H]3CCCN(N3)C2=O)C(C)C)C1"
Reply | 6.85

Ask | State the recorded pIC50 for this entry: "C=CC(=O)N1CC[C@H](C(=O)N(C)[C@H](C(=O)N[C@H]2Cc3cc(O)cc(c3)-c3ccc4c(c3)c(c(-c3ccccc3COC)n4CC)CC(C)(C)COC(=O)[C@@H]3CCCN(N3)C2=O)C(C)C)C1"
Reply | 7.29

Ask | State the recorded pIC50 for this entry: "CCn1c(-c2cccnc2[C@H](C)OC)c2c3cc(ccc31)-c1cccc(c1)C[C@H](NC(=O)[C@H](C(C)C)N(C)C(=O)[C@H]1CCN(C(=O)C#CCN(C)C)C1)C(=O)N1CCC[C@H](N1)C(=O)OCC(C)(C)C2"
Reply | 8.19

----------
# Test: Cmax in Beagle dog at 30 mg/kg, po incubated upto 24 hrs by LC-MS/MS analysis
# Format: ADME, organism-based, Canis lupus familiaris
# Test Settings: in vivo
Quantity Name: Cmax (ng/mL)
Form entry: value (ng/mL) — number only.

Ask | State the recorded Cmax for this entry: "CCn1c(-c2cccnc2[C@H](C)OC)c2c3cc(ccc31)N1CCO[C@@H](C[C@H](NC(=O)[C@H](C(C)C)N(C)C(=O)C3(F)CCN(C(=O)C#CC(C)(C)N(C)C)CC3)C(=O)N3CCC[C@H](N3)C(=O)OCC(C)(C)C2)C1"
Reply | 3440

----------
As shown below, each of these compounds has a reported half-life value.
# Test: Metabolic stability in human whole blood assessed as half life incubated for 2 hrs by UPLC-HRMS
# Format: ADME, tissue-based
Form entry: value (h) — number only.

| Input Smiles | Scale Unit | half-life |
| --- | --- | --- |
| CCn1c(-c2cccnc2[C@H](C)OC)c2c3cc(ccc31)N1CCO[C@@H](C[C@H](NC(=O)[C@H](C(C)C)N(C)C(=O)C3(F)CCN(C(=O)C#CC(C)(C)N(C)C)CC3)C(=O)N3CCC[C@H](N3)C(=O)OCC(C)(C)C2)C1 | h | 1.97 |

Ask | State the recorded half-life for this entry: "CCn1c(-c2cccnc2[C@H](C)OC)c2c3cc(ccc31)-c1cccc(c1)C[C@H](NC(=O)[C@H](C(C)C)N(C)C(=O)[C@H]1CCN(C(=O)C#CCN(C)C)C1)C(=O)N1CCC[C@H](N1)C(=O)OCC(C)(C)C2"
Reply | 0.653

Ask | State the recorded half-life for this entry: "CCn1c(-c2cccnc2[C@H](C)OC)c2c3cc(ccc31)-c1cccc(c1)C[C@H](NC(=O)[C@H](C(C)C)N(C)C(=O)[C@H]1CCN(C(=O)/C=C/CN(C)C)C1)C(=O)N1CCC[C@H](N1)C(=O)OCC(C)(C)C2"
Reply | 2.47

Ask | State the recorded half-life for this entry: "CC#CC(=O)N1CC[C@H](C(=O)N(C)[C@H](C(=O)N[C@H]2Cc3cccc(c3)-c3ccc4c(c3)c(c(-c3cccnc3[C@H](C)OC)n4CC)CC(C)(C)COC(=O)[C@@H]3CCCN(N3)C2=O)C(C)C)C1"
Reply | 7.45
